target_desc: human FPR2 (Homo sapiens (Human), UniProt P25090)
Sequence (P25090 whole entry): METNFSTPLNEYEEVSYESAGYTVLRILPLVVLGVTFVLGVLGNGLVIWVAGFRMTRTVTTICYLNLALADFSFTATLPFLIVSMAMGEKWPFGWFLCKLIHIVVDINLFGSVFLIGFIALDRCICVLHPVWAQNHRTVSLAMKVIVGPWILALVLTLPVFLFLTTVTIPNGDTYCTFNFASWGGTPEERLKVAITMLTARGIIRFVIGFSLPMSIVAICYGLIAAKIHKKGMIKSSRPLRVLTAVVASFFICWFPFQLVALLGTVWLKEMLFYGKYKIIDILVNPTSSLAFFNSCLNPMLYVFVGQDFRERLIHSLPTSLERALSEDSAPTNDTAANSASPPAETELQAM
measurement_notes: FPR2 cyclic adenosine monophosphate (cAMP) assay
Assay type: cell-based
test_settings: CHO cells overexpressing human FPR2; forskolin 5 µM; inhibition of cAMP production; read-out: hFPR2 cAMP2 EC50
metric: EC50 (nM)
Give the value in nM but do not write nM after it.

Completed entries (count: 8):
COc1cc(F)c([C@@H]2CN(c3c(C)ccn(C4CCNC4)c3=O)C(=O)[C@H]2NC(=O)c2ccc(OC(F)F)cc2)c(F)c1 (stereo partly shown) [Example 612]    13.5
COc1ccc([C@@H]2CN(c3c(C)ccn(C4CCOC4)c3=O)C(=O)[C@H]2NC(=O)c2ccc(OC(F)(F)F)cc2)cc1 (stereo partly shown) [Example 704]    2.4
COc1cc(F)c([C@@H]2CN(c3ccnn(CC(O)C(F)(F)F)c3=O)C(=O)[C@H]2NC(=O)c2ccc(OC(F)(F)F)cc2)c(F)c1 (stereo partly shown)    3
COc1cc(F)c([C@@H]2CN(c3c(C)ccn(C4CCS(=O)(=O)CC4)c3=O)C(=O)[C@H]2NC(=O)c2ccc(OC(F)F)cc2)c(F)c1    0.7
COc1cc(F)c([C@@H]2CN(c3ncn(CC(F)F)n3)C(=O)[C@H]2NC(=O)c2ccc(Cl)cc2)c(F)c1    20
COCCn1ccc(C)c(N2C[C@@H](c3ccc(OC)cc3)[C@H](NC(=O)c3ccc(OC(F)(F)F)cc3)C2=O)c1=O    4.7
CCn1ccc(F)c(N2C[C@@H](c3c(F)cc(OC)cc3F)[C@H](NC(=O)c3ccc(OC(F)F)cc3)C2=O)c1=O    12.5
COc1cc(F)c([C@@H]2CN(c3c(C)ccn(C(F)(F)C(=O)N4CCOCC4)c3=O)C(=O)[C@H]2NC(=O)c2ccc(OC(F)F)cc2)c(F)c1    7.8

Prompt: What EC50 value was documented for this compound, COCC(CO)n1ccc(C)c(N2C[C@@H](c3c(F)cc(OC)cc3F)[C@H](NC(=O)c3ccc(OC(F)(F)F)cc3)C2=O)c1=O (stereo partly shown) [Example 325] ?
Response: 11

Prompt: Same question for COc1cc(F)c([C@@H]2CN(c3nc(C4CCN(CC(F)F)CC4)ccc3F)C(=O)[C@H]2NC(=O)c2ccc(OC(F)F)cc2)c(F)c1 please.
Response: 4.1
